Provenance of the data: patent US20190359687A1

Here, each record is paired with measured binding in ELISA relative to parental Fab data.
Experimental target: T1, native human glycophorin A protein (human, UniProt P02724 20-150)
T1 construct: mature; also called Hu-nat GPA
T1 sequence (looked up): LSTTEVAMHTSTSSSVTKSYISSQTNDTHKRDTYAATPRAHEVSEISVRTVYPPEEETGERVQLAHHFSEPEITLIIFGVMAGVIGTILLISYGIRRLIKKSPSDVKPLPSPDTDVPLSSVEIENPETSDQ
Measurement notes: ELISA, Fab on coated native human GPA
Outcome measure: binding in ELISA relative to parental Fab

- Binder: "TPP-5676, Hu6C12-24 Fab variant VH: (I48M, D66G) (Fab, V domains shown, Built on the parental Fab TPP-4935) VH: EVQLVQSGAEVKKPGASVKVSCKASGYTFTTYTIHWVRQAPGQGLEWMGYINPSSDYTRYNPKFKGRVTLTTDKSTSTAYMELRSLRSDDTAVYYCQTGTRDYWGQGTTVTVSS VL: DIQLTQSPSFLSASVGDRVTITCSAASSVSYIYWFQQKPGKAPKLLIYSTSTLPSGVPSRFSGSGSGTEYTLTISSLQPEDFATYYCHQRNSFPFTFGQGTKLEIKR"
  Recorded value: "1.3 relative to parental Fab"
- Binder: "TPP-5907, humanized and germlined 6C12 Fab; VL: (S24R, A26S, S49A, P54Q, F95Y); VH: (I48M, S54G, D56G, D66G, L70M, T72R) (Fab, V domains shown) VH: EVQLVQSGAEVKKPGASVKVSCKASGYTFTTYTIHWVRQAPGQGLEWMGYINPGSGYTRYNPKFKGRVTMTRDKSTSTAYMELRSLRSDDTAVYYCQTGTRDYWGQGTTVTVSS VL: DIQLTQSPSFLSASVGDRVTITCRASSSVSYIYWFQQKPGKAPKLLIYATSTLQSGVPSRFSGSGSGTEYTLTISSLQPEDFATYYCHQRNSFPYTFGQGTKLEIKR"
  Recorded value: "12.3 relative to parental Fab"
- Binder: "TPP-5703, Hu6C12-24 Fab variant VL: (N91S) (Fab, V domains shown, Built on the parental Fab TPP-4935) VH: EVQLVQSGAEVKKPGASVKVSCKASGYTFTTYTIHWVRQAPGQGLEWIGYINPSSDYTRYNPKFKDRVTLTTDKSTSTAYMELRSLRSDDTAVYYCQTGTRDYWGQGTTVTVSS VL: DIQLTQSPSFLSASVGDRVTITCSAASSVSYIYWFQQKPGKAPKLLIYSTSTLPSGVPSRFSGSGSGTEYTLTISSLQPEDFATYYCHQRSSFPFTFGQGTKLEIKR"
  Recorded value: "2.1 relative to parental Fab"
- Binder: "TPP-5677, Hu6C12-24 Fab variant VH: (I48M, D66G, L70M) (Fab, V domains shown, Built on the parental Fab TPP-4935) VH: EVQLVQSGAEVKKPGASVKVSCKASGYTFTTYTIHWVRQAPGQGLEWMGYINPSSDYTRYNPKFKGRVTMTTDKSTSTAYMELRSLRSDDTAVYYCQTGTRDYWGQGTTVTVSS VL: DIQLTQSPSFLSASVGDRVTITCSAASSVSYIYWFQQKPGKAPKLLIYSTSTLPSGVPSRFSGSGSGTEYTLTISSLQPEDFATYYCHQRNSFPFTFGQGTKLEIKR"
  Recorded value: "1.8 relative to parental Fab"
- Binder: "TPP-5701, Hu6C12-24 Fab variant VL: (S49A, P54Q, F95Y) (Fab, V domains shown, Built on the parental Fab TPP-4935) VH: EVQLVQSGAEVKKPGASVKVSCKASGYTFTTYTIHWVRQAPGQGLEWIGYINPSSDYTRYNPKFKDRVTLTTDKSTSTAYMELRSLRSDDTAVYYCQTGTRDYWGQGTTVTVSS VL: DIQLTQSPSFLSASVGDRVTITCSAASSVSYIYWFQQKPGKAPKLLIYATSTLQSGVPSRFSGSGSGTEYTLTISSLQPEDFATYYCHQRNSFPYTFGQGTKLEIKR"
  Recorded value: "4.6 relative to parental Fab"
